# test-description: Circular dichroism (CD) analysis of alpha-helicity
# Type: physicochemical
# run-parameters: 222 nm, benign CD buffer (20 mM phosphoric acid, pH 2), 0.05 mg/ml, 4° C.
Bridge positions count the residues as written; N and C are the ends. Square brackets hold non-standard residues; d marks the D form. Peptide text beside a SMILES is read from it. R8 = C=CCCCCCC[C@@](C)(N)C(=O)O; S5 = C=CCCC[C@](C)(N)C(=O)O; Nle = CCCC[C@H](N)C(=O)O
parameter-measured: Molar Ellipticity Benign (222 in 0% TFE) (deg cm^2 dmol^−1)
Give bare numbers, in deg cm^2 dmol^−1.

Here's what some known entries look like.
molecule: CC[C@H](C)[C@H](NC(=O)[C@H](C)NC(=O)[C@H](C)NC(=O)[C@]1(C)CCC/C=C/CCCCCC[C@@](C)(NC(=O)[C@H](Cc2ccccc2)NC(=O)[C@@H](NC(=O)[C@H](CC(C)C)NC(C)=O)[C@@H](C)O)C(=O)N[C@@H](C)C(=O)N[C@@H](Cc2ccc(O)cc2)C(=O)N[C@@H](Cc2c[nH]c3ccccc23)C(=O)N[C@@H](C)C(=O)N[C@@H](CCC(N)=O)C(=O)N[C@@H](CC(C)C)C(=O)N1)C(=O)N[C@H](C)C(N)=O [compound 71]
readout-value: −121.2
//
molecule: CCCC[C@H](NC(=O)[C@H](CCC(N)=O)NC(=O)[C@H](CCC(N)=O)NC(=O)[C@]1(C)CCCC=CCCCCCC[C@@](C)(NC(=O)[C@H](Cc2ccccc2)NC(C)=O)C(=O)N[C@@H](C)C(=O)N[C@@H](Cc2ccc(O)cc2)C(=O)N[C@@H](Cc2c[nH]c3ccccc23)C(=O)N[C@@H]([C@@H](C)O)C(=O)N[C@@H](C)C(=O)N[C@@H](CC(C)C)C(=O)N1)C(=O)N[C@@H](C(N)=O)C(C)C [compound 41] (Ac-F[R8]AYWTAL[S5]QQ[Nle][dV]-NH2; staple 2-9)
readout-value: −909
//
molecule: CC(=O)N[C@@H](CC(C)C)C(=O)N[C@H](C(=O)N[C@@H](Cc1ccccc1)C(=O)N[C@]1(C)CCCCCCC=CCCC[C@@](C)(C(=O)N[C@@H](CO)C(=O)N[C@@H](C)C(=O)N[C@@H](C)C(N)=O)NC(=O)[C@H](CC(C)C)NC(=O)[C@H](CCC(N)=O)NC(=O)[C@H](C)NC(=O)[C@H](Cc2c[nH]c3ccccc23)NC(=O)[C@H](Cc2ccc(O)cc2)NC(=O)[C@H](C)NC1=O)[C@@H](C)O [compound 11] (Ac-LTF[R8]AYWAQL[S5]SAA-NH2; staple 4-11)
readout-value: −398.2

Quick request: Molar Ellipticity Benign (222 in 0% TFE) for each listed item, please.
1. CC(=O)N[C@@H](CC(C)C)C(=O)N[C@H](C(=O)N[C@@H](Cc1ccccc1)C(=O)N[C@]1(C)CCCCCCC=CCCC[C@@](C)(C(=O)N[C@@H](CO)C(=O)N[C@@H](C)C(=O)N[C@@H](Cc2ccccc2)C(N)=O)NC(=O)[C@H](CC(C)C)NC(=O)[C@H](CCC(N)=O)NC(=O)[C@H](C)NC(=O)[C@H](Cc2c[nH]c3ccccc23)NC(=O)[C@H](Cc2ccc(O)cc2)NC(=O)[C@H](C)NC1=O)[C@@H](C)O [compound 7] (Ac-LTF[R8]AYWAQL[S5]SAF-NH2; staple 4-11)
2. CC(=O)N[C@@H](CC(C)C)C(=O)N[C@H](C(=O)N[C@@H](Cc1ccccc1)C(=O)N[C@]1(C)CCCCCCC=CCCC[C@@](C)(C(=O)N[C@@H](C)C(=O)N[C@@H](C)C(=O)N[C@@H](C)C(=O)N[C@@H](C)C(=O)N[C@H](C)C(N)=O)NC(=O)[C@H](CC(C)C)NC(=O)[C@H](CCC(N)=O)NC(=O)[C@H](C)NC(=O)[C@H](Cc2c[nH]c3ccccc23)NC(=O)[C@H](Cc2ccc(O)cc2)NC(=O)[C@H](C)NC1=O)[C@@H](C)O [compound 233]
3. CC(=O)N[C@@H](CC(C)C)C(=O)N[C@H](C(=O)N[C@@H](Cc1ccccc1)C(=O)N[C@]1(C)CCCCCCC=CCCC[C@@](C)(C(=O)N[C@@H](Cc2c[nH]cn2)C(=O)N[C@@H](Cc2c[nH]cn2)C(=O)N[C@@H](CC(C)C)C(=O)N[C@H](C)C(N)=O)NC(=O)[C@H](CC(C)C)NC(=O)[C@H](CCC(N)=O)NC(=O)[C@H](C)NC(=O)[C@H](Cc2c[nH]c3ccccc23)NC(=O)[C@H](Cc2ccc(O)cc2)NC(=O)[C@H](C)NC1=O)[C@@H](C)O [compound 43] (Ac-LTF[R8]AYWAQL[S5]HHL[dA]-NH2; staple 4-11)
4. CC(=O)N[C@@H](CC(C)C)C(=O)N[C@H](C(=O)N[C@@H](Cc1ccccc1)C(=O)N[C@]1(C)CCCCCCC=CCCC[C@@](C)(C(=O)N[C@@H](C)C(=O)N[C@@H](C)C(=O)N[C@@H](C)C(=O)N[C@H](C)C(N)=O)NC(=O)[C@H](CC(C)C)NC(=O)[C@H](CCC(N)=O)NC(=O)[C@H](C)NC(=O)[C@H](Cc2c[nH]c3ccccc23)NC(=O)[C@H](Cc2ccc(O)cc2)NC(=O)[C@H](C)NC1=O)[C@@H](C)O (single isomer, unassigned) [compound 230]
5. CCCC[C@H](NC(=O)[C@H](C)NC(=O)[C@H](C)NC(=O)[C@]1(C)CCC/C=C/CCCCCC[C@@](C)(NC(=O)[C@H](Cc2ccccc2)NC(=O)[C@@H](NC(=O)[C@H](CC(C)C)NC(C)=O)[C@@H](C)O)C(=O)N[C@@H](C)C(=O)N[C@@H](Cc2ccc(O)cc2)C(=O)N[C@@H](Cc2c[nH]c3ccccc23)C(=O)N[C@@H](C)C(=O)N[C@@H](CCC(N)=O)C(=O)N[C@@H](CC(C)C)C(=O)N1)C(=O)N[C@@H](C)C(N)=O [compound 69]

1: 124; 2: −477.9; 3: −15334.5; 4: −213.2; 5: −102.6
